# Species on record: Rattus norvegicus
# PROCEDURE SUMMARY: DrugMatrix - Regimen: Daily Repeat
# Format: toxicity, organism-based, Sprague-Dawley
# Design: regimen Daily Repeat, gender Male, age 6-8 weeks
# EXPERIMENTAL CONDITIONS: in vivo, po, 0 mg/kg, 120 h, tissue Blood, route oral GAVAGE, dose level Control, time 5 day, vehicle .5 % CMC
The label depends only on ERYTHROCYTE COUNT: 1 (yes) if it is at least 6 x10E6/uL, 0 (no) if it is smaller.

[[record]]
molecule = "Clc1ccccc1CN1CCc2sccc2C1"
answer_label = "1 (yes)"

[[record]]
molecule = "CN(C/C=C/C#CC(C)(C)C)Cc1cccc2ccccc12"
answer_label = "1 (yes)"

[[record]]
molecule = "Cn1c(=O)c2c(ncn2CC(O)CO)n(C)c1=O (centres undefined)"
answer_label = "0 (no)"

[[record]]
molecule = "COc1cc2nc(N3CCN(C(=O)c4ccco4)CC3)nc(N)c2cc1OC"
answer_label = "0 (no)"

[[record]]
molecule = "CN(C)[C@@H]1C(O)=C(C(N)=O)C(=O)[C@@]2(O)C(O)=C3C(=O)c4c(O)ccc(Cl)c4[C@@](C)(O)[C@H]3C[C@@H]12"
answer_label = "0 (no)"

[[record]]
molecule = "O=C1CN=C(c2ccccc2Cl)c2cc([N+](=O)[O-])ccc2N1"
answer_label = "0 (no)"

[[record]]
molecule = "C[C@H]1O[C@@H](n2cc(F)c(=O)[nH]c2=O)[C@H](O)[C@@H]1O"
answer_label = "0 (no)"


---

Measured ABSOLUTE SEGMENTED NEUTROPHIL by item
# Species: Rattus norvegicus
# PROCEDURE SUMMARY: DrugMatrix - Regimen: Daily Repeat
# Assay type: toxicity, organism-based, Sprague-Dawley
# Parameters: regimen Daily Repeat, gender Male, age 6-8 weeks
# EXPERIMENTAL CONDITIONS: in vivo, po, 0 mg/kg, 120 h, tissue Blood, route oral GAVAGE, dose level Control, time 5 day, […]
MEASURED QUANTITY: ABSOLUTE SEGMENTED NEUTROPHIL (CELLS/uL)

[[record]]
compound = "CC(C)(C)NC(=O)[C@H]1CC[C@H]2[C@@H]3CC[C@H]4NC(=O)C=C[C@]4(C)[C@H]3CC[C@]12C [FINASTERIDE]"
measured_quantity = "ABSOLUTE SEGMENTED NEUTROPHIL"
assay_result = 1034

[[record]]
compound = "COc1cc(N)c(Cl)cc1C(=O)NC1CCN(CCCOc2ccc(F)cc2)CC1OC (centres undefined) [CISAPRIDE]"
measured_quantity = "ABSOLUTE SEGMENTED NEUTROPHIL"
assay_result = 614

[[record]]
compound = "Clc1ccc(COC(Cn2ccnc2)c2ccc(Cl)cc2Cl)cc1 (centres undefined)"
measured_quantity = "ABSOLUTE SEGMENTED NEUTROPHIL"
assay_result = 337.67

[[record]]
compound = "CO[C@H]1/C=C/O[C@@]2(C)Oc3c(C)c(O)c4c(O)c(c(/C=N/N5CCN(C6CCCC6)CC5)c(O)c4c3C2=O)NC(=O)/C(C)=C\\C=C\\[C@H](C)[C@H](O)[C@@H](C)[C@@H](O)[C@@H](C)[C@H](OC(C)=O)[C@@H]1C"
measured_quantity = "ABSOLUTE SEGMENTED NEUTROPHIL"
assay_result = 1499.17


---

# Species on record: Rattus norvegicus
# PROCEDURE SUMMARY: DrugMatrix - Regimen: Daily Repeat
# Type: toxicity, organism-based, Sprague-Dawley
# Parameters: regimen Daily Repeat, gender Male, age 6-8 weeks
# EXPERIMENTAL CONDITIONS: in vivo, po, 1500 mg/kg, 72 h, tissue Plasma, route oral GAVAGE, dose level High, time 3 day, vehicle .5 % CMC
MEASURED QUANTITY: ALANINE AMINOTRANSFERASE (u/L)

[[record]]
molecule = "CN(C)[C@@H]1C(O)=C(C(N)=O)C(=O)[C@@]2(O)C(O)=C3C(=O)c4c(O)ccc(Cl)c4[C@@](C)(O)[C@H]3C[C@@H]12"
measured_quantity = "ALANINE AMINOTRANSFERASE"
unit_tag = "u/L"
assay_result = 54

[[record]]
molecule = "CC(C)Oc1ccc2c(=O)c(-c3ccccc3)coc2c1"
measured_quantity = "ALANINE AMINOTRANSFERASE"
unit_tag = "u/L"
assay_result = 44.33

[[record]]
molecule = "O=c1cnn([C@@H]2O[C@H](CO)[C@@H](O)[C@H]2O)c(=O)[nH]1"
measured_quantity = "ALANINE AMINOTRANSFERASE"
unit_tag = "u/L"
assay_result = 17.33

[[record]]
molecule = "COC(=O)Nc1nc2ccc([S+]([O-])c3ccccc3)cc2[nH]1 (stereo not given)"
measured_quantity = "ALANINE AMINOTRANSFERASE"
unit_tag = "u/L"
assay_result = 42.33

[[record]]
molecule = "CC(C)=CCC/C(C)=C/CO"
measured_quantity = "ALANINE AMINOTRANSFERASE"
unit_tag = "u/L"
assay_result = 47.33


---

Measured MONOCYTE by item
# Organism: Rattus norvegicus
# PROCEDURE SUMMARY: DrugMatrix - Regimen: Daily Repeat
# Format: toxicity, organism-based, Sprague-Dawley
# Set-up: regimen Daily Repeat, gender Male, age 6-8 weeks
# EXPERIMENTAL CONDITIONS: in vivo, po, 0 mg/kg, 72 h, tissue Blood, route oral GAVAGE, dose level Control, time 3 day, vehicle .5 % CMC
MEASURED QUANTITY: MONOCYTE (%)

[[record]]
molecule = "C[C@H]1O[C@@H](n2cc(F)c(=O)[nH]c2=O)[C@H](O)[C@@H]1O [DOXIFLURIDINE]"
unit_tag = "%"
assay_result = 1.33

[[record]]
molecule = "COc1ccc(C2C(=O)c3ccccc3C2=O)cc1 [ANISINDIONE]"
unit_tag = "%"
assay_result = 1.4

[[record]]
molecule = "O=C1C(CC[S+]([O-])c2ccccc2)C(=O)N(c2ccccc2)N1c1ccccc1 (stereo not given) [SULFINPYRAZONE]"
unit_tag = "%"
assay_result = 1.17

[[record]]
molecule = "Clc1ccccc1CN1CCc2sccc2C1 [TICLOPIDINE]"
unit_tag = "%"
assay_result = 1.4

[[record]]
molecule = "COC1=C(OC)C(=O)C(CCCCCCCCCCO)=C(C)C1=O [IDEBENONE]"
unit_tag = "%"
assay_result = 1.33


---

# Species on record: Rattus norvegicus
# PROCEDURE SUMMARY: DrugMatrix - Regimen: Daily Repeat
# Assay type: toxicity, organism-based, Sprague-Dawley
# Design: regimen Daily Repeat, gender Male, age 6-8 weeks
# EXPERIMENTAL CONDITIONS: in vivo, po, 2000 mg/kg, 120 h, tissue Plasma, route oral GAVAGE, dose level High, time 5 day, vehicle .5 % CMC
MEASURED QUANTITY: ALANINE AMINOTRANSFERASE (u/L)

[[record]]
compound = "CN(C/C=C/C#CC(C)(C)C)Cc1cccc2ccccc12"
assay_result = 37.67

[[record]]
compound = "NC1CCN(c2nc3c(cc2F)c(=O)c(C(=O)O)cn3-c2ccc(F)cc2F)C1 (stereo unspecified)"
assay_result = 45.67

[[record]]
compound = "COc1cc2nc(N3CCN(C(=O)c4ccco4)CC3)nc(N)c2cc1OC"
assay_result = 63.33

[[record]]
compound = "CN/C(=N/CCSCc1nc[nH]c1C)NC#N"
assay_result = 58

[[record]]
compound = "O=C1Nc2ccc(Cl)cc2C(c2ccccc2Cl)=NC1O (stereo unspecified)"
assay_result = 64.5

[[record]]
compound = "CC1(C)S[C@@H]2[C@H](NC(=O)[C@H](N)c3ccccc3)C(=O)N2[C@H]1C(=O)O"
assay_result = 63.33


---

# Species: Rattus norvegicus
# PROCEDURE SUMMARY: DrugMatrix - Regimen: Daily Repeat
# Format: toxicity, organism-based, Sprague-Dawley
# Set-up: regimen Daily Repeat, gender Male, age 6-8 weeks
# EXPERIMENTAL CONDITIONS: in vivo, po, 0 mg/kg, 72 h, tissue Plasma, route oral GAVAGE, dose level Control, time 3 day, vehicle .5 % CMC
Measured CREATINE PHOSPHOKINASE by item
MEASURED QUANTITY: CREATINE PHOSPHOKINASE

[[record]]
compound = "CC(C(=O)O)c1ccc2oc(-c3ccc(Cl)cc3)nc2c1 (configuration not stated) [BENOXAPROFEN]"
measured_quantity = "CREATINE PHOSPHOKINASE"
assay_result = "282.33 u/L"

[[record]]
compound = "C[C@H]1O[C@@H](n2cc(F)c(=O)[nH]c2=O)[C@H](O)[C@@H]1O [DOXIFLURIDINE]"
measured_quantity = "CREATINE PHOSPHOKINASE"
assay_result = "1325.83 u/L"

[[record]]
compound = "CN/C(=N/CCSCc1nc[nH]c1C)NC#N [CIMETIDINE]"
measured_quantity = "CREATINE PHOSPHOKINASE"
assay_result = "1325.83 u/L"

[[record]]
compound = "Cn1c(=O)c2c(ncn2CC(O)CO)n(C)c1=O (configuration not stated) [DYPHYLLINE]"
measured_quantity = "CREATINE PHOSPHOKINASE"
assay_result = "442.5 u/L"

[[record]]
compound = "CC(=O)Oc1ccc(C(c2ccc(OC(C)=O)cc2)c2ccccn2)cc1 [BISACODYL]"
measured_quantity = "CREATINE PHOSPHOKINASE"
assay_result = "166.83 u/L"

[[record]]
compound = "NC1CCN(c2nc3c(cc2F)c(=O)c(C(=O)O)cn3-c2ccc(F)cc2F)C1 (configuration not stated) [TOSUFLOXACIN]"
measured_quantity = "CREATINE PHOSPHOKINASE"
assay_result = "107.67 u/L"

[[record]]
compound = "NCCCC(O)(P(=O)(O)O)P(=O)(O)O [ALENDRONIC ACID]"
measured_quantity = "CREATINE PHOSPHOKINASE"
assay_result = "174.33 u/L"

[[record]]
compound = "CCN(CC)CCOc1ccc(/C(=C(/Cl)c2ccccc2)c2ccccc2)cc1 [ENCLOMIPHENE]"
measured_quantity = "CREATINE PHOSPHOKINASE"
assay_result = "331.5 u/L"

[[record]]
compound = "COC1=C(OC)C(=O)C(CCCCCCCCCCO)=C(C)C1=O [IDEBENONE]"
measured_quantity = "CREATINE PHOSPHOKINASE"
assay_result = "1325.83 u/L"

[[record]]
compound = "CN(C/C=C/C#CC(C)(C)C)Cc1cccc2ccccc12 [TERBINAFINE]"
measured_quantity = "CREATINE PHOSPHOKINASE"
assay_result = "107.67 u/L"

[[record]]
compound = "Clc1ccccc1CN1CCc2sccc2C1 [TICLOPIDINE]"
measured_quantity = "CREATINE PHOSPHOKINASE"
assay_result = "174.33 u/L"

[[record]]
compound = "COc1ccc(C2C(=O)c3ccccc3C2=O)cc1 [ANISINDIONE]"
measured_quantity = "CREATINE PHOSPHOKINASE"
assay_result = "174.33 u/L"

[[record]]
compound = "O=C1C(CC[S+]([O-])c2ccccc2)C(=O)N(c2ccccc2)N1c1ccccc1 (configuration not stated) [SULFINPYRAZONE]"
measured_quantity = "CREATINE PHOSPHOKINASE"
assay_result = "788 u/L"

[[record]]
compound = "O=C1CN=C(c2ccccc2Cl)c2cc([N+](=O)[O-])ccc2N1 [CLONAZEPAM]"
measured_quantity = "CREATINE PHOSPHOKINASE"
assay_result = "1325.83 u/L"

[[record]]
compound = "O=C1Nc2ccc(Cl)cc2C(c2ccccc2Cl)=NC1O (configuration not stated) [LORAZEPAM]"
measured_quantity = "CREATINE PHOSPHOKINASE"
assay_result = "788 u/L"

[[record]]
compound = "COc1cc2nc(N3CCN(C(=O)c4ccco4)CC3)nc(N)c2cc1OC [PRAZOSIN]"
measured_quantity = "CREATINE PHOSPHOKINASE"
assay_result = "788 u/L"

[[record]]
compound = "CN(C)[C@@H]1C(O)=C(C(N)=O)C(=O)[C@@]2(O)C(O)=C3C(=O)c4c(O)ccc(Cl)c4[C@@](C)(O)[C@H]3C[C@@H]12 [CHLORTETRACYCLINE]"
measured_quantity = "CREATINE PHOSPHOKINASE"
assay_result = "442.5 u/L"

